Origin of values: patent US20140011757A1

system: A. pleuropneumoniae; assay: In vitro antibacterial activity, broth microdilution MIC (CLSI M31-A2); type: cell-based, Actinobacillus pleuropneumoniae; conditions: Actinobacillus pleuropneumoniae, ATCC27089, A. pleuropneumoniae strain ATCC27089; read-out: MIC
MIC values by entry
The reply should contain only the number, in µg/mL.

Example entries and their recorded answers appear below.
CO[C@@H]1C(OC2O[C@@H](C)C(O)C(N(C)C)C2O)[C@@H](CC=O)C[C@@H](C)[C@@H](OC(C)=O)/C=C/[C@@H](N(C)CCCc2ccnc3ccccc23)[C@@H](O)C[C@@H](C)OC(=O)C[C@H]1OC(C)=O (stereo partly shown) [Compound of formula (I)]: 4
CC[C@H]1OC(=O)C[C@@H](O)[C@H](C)[C@@H](O[C@@H]2O[C@H](C)[C@@H](O[C@H]3C[C@@](C)(O)[C@@H](O)[C@H](C)O3)[C@H](N(C)C)[C@H]2O)[C@@H](CC=O)C[C@@H](C)C(=O)/C=C/C(C)=C/[C@@H]1CO[C@@H]1O[C@H](C)[C@@H](O)[C@@H](OC)[C@H]1OC [TS, tylosin]: 32
CO[C@@H]1[C@@H](O[C@@H]2O[C@H](C)[C@@H](O[C@H]3C[C@@](C)(O)[C@@H](OC(=O)CC(C)C)[C@H](C)O3)[C@H](N(C)C)[C@H]2O)[C@@H](CC=O)C[C@@H](C)[C@@H](O)/C=C/C=C/C[C@@H](C)OC(=O)C[C@H]1OC(C)=O [JM, josamycin]: 16

// switching to the query molecule
## Input Need MIC of CC[C@H]1OC(=O)C[C@@H](O)[C@H](C)[C@@H](O[C@@H]2O[C@H](C)[C@@H](O)[C@H](N(C)C)[C@H]2O)[C@@H](CCN2C[C@H](C)C[C@H](C)C2)C[C@@H](C)C(=O)/C=C/C(C)=C/[C@@H]1CO[C@@H]1O[C@H](C)[C@@H](O)[C@@H](OC)[C@H]1OC [TMS, tilmicosin] , thanks.
## Output 16
